# BCL-2 (Homo sapiens): IC50 values follow

>  <compound>
O=C(NS(=O)(=O)c1ccc(NCC2CCOCC2)c([N+](=O)[O-])c1)c1ccc(N2CCN(C[C@@H]3Cc4ccccc4CN3C(=O)C3CCNC3)CC2)cc1Oc1cnc2[nH]ccc2c1 (stereo partly drawn) [Compound 78]

>  <IC50>
5 to 10 nM

$$$$
>  <compound>
O=C(NS(=O)(=O)c1ccc(NCC2CCOCC2)c([N+](=O)[O-])c1)c1ccc(N2CCC(CN3C(=O)C4(CCCC4)C3c3ccc(Cl)cc3)CC2)cc1Oc1cnc2[nH]ccc2c1 (stereo not drawn) [Compound 1]

>  <IC50>
10 to 50 nM

$$$$
>  <compound>
O=C(NS(=O)(=O)c1ccc(NCC2CCOCC2)c([N+](=O)[O-])c1)c1ccc(N2CCC(CN3CCCCCC3c3ccc(Cl)cc3)CC2)cc1Oc1cnc2[nH]ccc2c1 (stereo not drawn) [Compound 44]

>  <IC50>
> 50 nM

$$$$

----------
experiment.description: Cell viability assay HEK293 (CellTiter-Glo)
Assay type: cell-based
condition.details: human, HEK293 cells, read-out: HEK293 (CC50 code)
Listing of entries alongside the reported CC50 at 3 days.

>  <compound>
C[C@]1(O)CC[C@H](CN2CCN(c3ccc(C(=O)NS(=O)(=O)c4ccc(NCC5CCOCC5)c([N+](=O)[O-])c4)c(Oc4cnc5[nH]ccc5c4)c3)CC2)[C@@H](c2ccc(Cl)cc2)C1

>  <CC50 at 3 days>
10 to 25 µM

$$$$
>  <compound>
CC1(O)CC[C@H](CN2CCN(c3ccc(C(=O)NS(=O)(=O)c4ccc(NCC5CCOCC5)c([N+](=O)[O-])c4)c(Oc4cnc5[nH]ccc5c4)c3)CC2)[C@@H](c2ccc(Cl)cc2)C1 (stereo partly shown)

>  <CC50 at 3 days>
> 25 µM

$$$$
>  <compound>
CC(C)C(=O)N1C[C@H](CN2CCN(c3ccc(C(=O)NS(=O)(=O)c4ccc(NCC5CCOCC5)c([N+](=O)[O-])c4)c(Oc4cnc5[nH]ccc5c4)c3)CC2)[C@@H](c2ccc(Cl)cc2)C1

>  <CC50 at 3 days>
> 25 µM

$$$$
>  <compound>
O=C(NS(=O)(=O)c1ccc(NCC2CCOCC2)c([N+](=O)[O-])c1)c1ccc(N2CCN(C[C@@H]3Cc4ccccc4CN3C(=O)c3ccc(Cl)s3)CC2)cc1Oc1cnc2[nH]ccc2c1

>  <CC50 at 3 days>
> 25 µM

$$$$
>  <compound>
O=C(NS(=O)(=O)c1ccc(NCC2CCOCC2)c([N+](=O)[O-])c1)c1ccc(N2CCN(CC34CC(O)CCC3(c3ccc(Cl)cc3)C4)CC2)cc1Oc1cnc2[nH]ccc2c1 (stereo not shown)

>  <CC50 at 3 days>
10 to 25 µM

$$$$
>  <compound>
CC1=C(C)C[C@H](c2ccc(Cl)cc2)[C@@H](CN2CCN(c3ccc(C(=O)NS(=O)(=O)c4ccc(NCC5CCOCC5)c([N+](=O)[O-])c4)c(Oc4cnc5[nH]ccc5c4)c3)CC2)C1

>  <CC50 at 3 days>
> 25 µM

$$$$
>  <compound>
O=C(NS(=O)(=O)c1ccc(NCC2CCOCC2)c([N+](=O)[O-])c1)c1ccc(N2CCC(CN3Cc4ccccc4CC3c3ccccc3)CC2)cc1Oc1cnc2[nH]ccc2c1 (stereo not shown)

>  <CC50 at 3 days>
> 25 µM

$$$$

----------
Test system: RS4-11 cells
experiment.description: Cell viability assay RS4-11 (CellTiter-Glo)
Format: cell-based
condition.details: Homo sapiens, 72 h; RS4-11 cells, 3 days, CellTiter-Glo; read-out: RS4-11 (CC50 code)
Listing of entries alongside the reported CC50.

>  <compound>
O=C(NS(=O)(=O)c1ccc(NCC2CCOCC2)c([N+](=O)[O-])c1)c1ccc(N2CCN(C[C@@H]3Cc4ccccc4CN3C(=O)c3ccsc3)CC2)cc1Oc1cnc2[nH]ccc2c1

>  <experimental.target>
RS4-11 cells

>  <CC50>
> 200 nM

$$$$
>  <compound>
O=C(NS(=O)(=O)c1ccc(NCC2CCOCC2)c([N+](=O)[O-])c1)c1ccc(N2CCN(C[C@H]3Cc4ccccc4CN3C(=O)C3CC3)CC2)cc1Oc1cnc2[nH]ccc2c1

>  <experimental.target>
RS4-11 cells

>  <CC50>
> 200 nM

$$$$
>  <compound>
CC1=CC[C@@H]2C[C@H]1[C@H](c1ccc(Cl)cc1)N(CC1CCN(c3ccc(C(=O)NS(=O)(=O)c4ccc(NCC5CCOCC5)c([N+](=O)[O-])c4)c(Oc4cnc5[nH]ccc5c4)c3)CC1)C2

>  <experimental.target>
RS4-11 cells

>  <CC50>
> 200 nM

$$$$
>  <compound>
O=C(NS(=O)(=O)c1ccc(NCC2CCOCC2)c([N+](=O)[O-])c1)c1ccc(N2CCN(C[C@@H]3Cc4ccc(F)cc4CN3C(=O)C3CC3)CC2)cc1Oc1cnc2[nH]ccc2c1

>  <experimental.target>
RS4-11 cells

>  <CC50>
> 200 nM

$$$$
>  <compound>
O=C(NS(=O)(=O)c1ccc(NC2CCS(=O)(=O)CC2)c([N+](=O)[O-])c1)c1ccc(N2CCC(CN3CCCCC3c3ccc(Cl)cc3)CC2)cc1Oc1cnc2[nH]ccc2c1 (stereo not shown)

>  <experimental.target>
RS4-11 cells

>  <CC50>
> 200 nM

$$$$
>  <compound>
CC1(O)CC[C@@H](CN2CCN(c3ccc(C(=O)NS(=O)(=O)c4ccc(NCC5CCOCC5)c([N+](=O)[O-])c4)c(Oc4cnc5[nH]ccc5c4)c3)CC2)[C@H](c2ccc(Cl)cc2)C1 (stereo partly shown)

>  <experimental.target>
RS4-11 cells

>  <CC50>
< 100 nM

$$$$
>  <compound>
O=C(NS(=O)(=O)c1ccc(NCC2CCOCC2)c([N+](=O)[O-])c1)c1ccc(N2CCN(CC3Cc4cc(Cl)ccc4CN3C(=O)C3CC3)CC2)cc1Oc1cnc2[nH]ccc2c1 (stereo not shown)

>  <experimental.target>
RS4-11 cells

>  <CC50>
> 200 nM

$$$$
>  <compound>
CC1=CC[C@H](CN2CCN(c3ccc(C(=O)NS(=O)(=O)c4ccc(NCC5CCOCC5)c([N+](=O)[O-])c4)c(Oc4cnc5[nH]ccc5c4)c3)CC2)[C@@H](c2ccc(Cl)cc2)C1

>  <experimental.target>
RS4-11 cells

>  <CC50>
100 to 200 nM

$$$$
>  <compound>
O=C(NS(=O)(=O)c1ccc(NCC2CCOCC2)c([N+](=O)[O-])c1)c1ccc(N2CCN(CC(c3ccccc3)c3ccccc3)CC2)cc1Oc1cnc2[nH]ccc2c1

>  <experimental.target>
RS4-11 cells

>  <CC50>
> 200 nM

$$$$
>  <compound>
O=C(NS(=O)(=O)c1ccc(NCC2CCOCC2)c([N+](=O)[O-])c1)c1ccc(N2CCN(CC(O)(c3ccccc3)c3ccc(Cl)cc3)CC2)cc1Oc1cnc2[nH]ccc2c1 (stereo not shown)

>  <experimental.target>
RS4-11 cells

>  <CC50>
> 200 nM

$$$$

----------
experimental.target: BCL-2 (Homo sapiens, UniProt P10415)
Sequence (P10415 whole entry): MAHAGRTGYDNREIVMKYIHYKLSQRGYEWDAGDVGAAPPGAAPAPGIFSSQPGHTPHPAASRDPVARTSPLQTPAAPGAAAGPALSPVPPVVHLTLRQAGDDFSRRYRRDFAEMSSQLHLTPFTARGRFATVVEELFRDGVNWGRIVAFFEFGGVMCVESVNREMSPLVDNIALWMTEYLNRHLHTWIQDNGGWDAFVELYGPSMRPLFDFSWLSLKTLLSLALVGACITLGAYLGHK
pIC50: −log10 of the molar value.
Listing of entries alongside the reported pIC50.
recorded.metric: pIC50

>  <compound>
O=C(NS(=O)(=O)c1ccc(NCC2CCOCC2)c([N+](=O)[O-])c1)c1ccc(N2CCN(C[C@@H]3Cc4ccc(F)cc4CN3C(=O)C3CC3)CC2)cc1Oc1cnc2[nH]ccc2c1

>  <experimental.target>
BCL-2 (Homo sapiens, UniProt P10415)

>  <recorded.metric>
pIC50

>  <result>
< 7.30

$$$$
>  <compound>
CC1=CC[C@@H](c2ccc(Cl)cc2)[C@H](CN2CCN(c3ccc(C(=O)NS(=O)(=O)c4ccc(NCC5CCOCC5)c([N+](=O)[O-])c4)c(Oc4cnc5[nH]ccc5c4)c3)CC2)C1

>  <experimental.target>
BCL-2 (Homo sapiens, UniProt P10415)

>  <recorded.metric>
pIC50

>  <result>
< 7.30

$$$$
>  <compound>
CC(C)C(=O)N1Cc2ccc(Cl)cc2C[C@H]1CN1CCN(c2ccc(C(=O)NS(=O)(=O)c3ccc(NCC4CCOCC4)c([N+](=O)[O-])c3)c(Oc3cnc4[nH]ccc4c3)c2)CC1

>  <experimental.target>
BCL-2 (Homo sapiens, UniProt P10415)

>  <recorded.metric>
pIC50

>  <result>
< 7.30

$$$$
>  <compound>
CC1=C(C)C[C@H](c2ccc(Cl)cc2)[C@@H](CN2CCN(c3ccc(C(=O)NS(=O)(=O)c4ccc(NCC5CCOCC5)c([N+](=O)[O-])c4)c(Oc4cnc5[nH]ccc5c4)c3)CC2)C1

>  <experimental.target>
BCL-2 (Homo sapiens, UniProt P10415)

>  <recorded.metric>
pIC50

>  <result>
< 7.30

$$$$
>  <compound>
O=C(NS(=O)(=O)c1ccc(NCC2CCOCC2)c([N+](=O)[O-])c1)c1ccc(N2CCC(CN3CCCCC3c3ccc(Cl)cc3)CC2)cc1Oc1cnc2[nH]ccc2c1 (stereo not shown)

>  <experimental.target>
BCL-2 (Homo sapiens, UniProt P10415)

>  <recorded.metric>
pIC50

>  <result>
7.30 to 8.00

$$$$
>  <compound>
CCCC(c1ccc(Br)cc1)N1CCN(c2ccc(C(=O)NS(=O)(=O)c3ccc(NCC4CCOCC4)c([N+](=O)[O-])c3)c(Oc3ccc4[nH]ccc4c3)c2)CC1 (stereo not shown)

>  <experimental.target>
BCL-2 (Homo sapiens, UniProt P10415)

>  <recorded.metric>
pIC50

>  <result>
< 7.30

$$$$
>  <compound>
O=C(NS(=O)(=O)c1ccc(NCC2CCOCC2)c([N+](=O)[O-])c1)c1ccc(N2CCC(CN3C(=O)C4(CCCC4)C3c3ccc(Cl)cc3)CC2)cc1Oc1ccc2[nH]ccc2c1 (stereo not shown)

>  <experimental.target>
BCL-2 (Homo sapiens, UniProt P10415)

>  <recorded.metric>
pIC50

>  <result>
< 7.30

$$$$
>  <compound>
O=C(NS(=O)(=O)c1ccc(NCC2CCOCC2)c([N+](=O)[O-])c1)c1ccc(N2CCN(C[C@H]3Cc4ccccc4CN3C(=O)c3ccsc3)CC2)cc1Oc1cnc2[nH]ccc2c1

>  <experimental.target>
BCL-2 (Homo sapiens, UniProt P10415)

>  <recorded.metric>
pIC50

>  <result>
7.30 to 8.00

$$$$
>  <compound>
CC1=CC[C@@H](CN2CCN(c3ccc(C(=O)NS(=O)(=O)c4ccc(NCC5CCOCC5)c([N+](=O)[O-])c4)c(Oc4cnc5[nH]ccc5c4)c3)CC2)[C@H](c2ccc(Cl)cc2)C1

>  <experimental.target>
BCL-2 (Homo sapiens, UniProt P10415)

>  <recorded.metric>
pIC50

>  <result>
7.30 to 8.00

$$$$
>  <compound>
CC1(C)Cc2ccccc2CN1CC1CCN(c2ccc(C(=O)NS(=O)(=O)c3ccc(NCC4CCOCC4)c([N+](=O)[O-])c3)c(Oc3cnc4[nH]ccc4c3)c2)CC1

>  <experimental.target>
BCL-2 (Homo sapiens, UniProt P10415)

>  <recorded.metric>
pIC50

>  <result>
< 7.30

$$$$
